These data points were gathered from the supplement of paper PMC10567573.

# protein stability index per entry
- EXPERIMENT_SUMMARY: protein stability index of a GFP-peptide fusion (GPS, HEK-293T) (PSI 1-6); higher = more stable;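 also: 24-mer peptide tiles fused after GFP, lentivirally expressed, FACS-sorted into six equal bins by GFP/DsRed ratio, decoded by Illumina sequencing, PSI is the read-weighted mean bin number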
- CONDITION_SET: treatment: MLN4924 1 uM, 8 h; c terminus: a fixed tail appended
Answer with the value's number alone.

Sample answers from the record:
SASEMKQLIDNILEESDIDRDGTI [CIB1] ... 5.45
HCIQQILESVNHCHLNGIVHRDLK [CAMK2D] ... 2.36
PTSGIVGALMEVMQKRSKAIHSSD [WASL] ... 3.39
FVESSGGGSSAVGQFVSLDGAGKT [BRF1] ... 3.44
AVNRARRPLARPIKPNEILPPEKG [RHOBTB2] ... 4.27

IN: Look at this sequence and give its reported protein stability index. LPNTLLRKDKDVARLQDFQELELV [ANKRD40]
OUT: 3.66

IN: Look at this sequence and give its reported protein stability index. MQATADSTKMDCVWSNWKSQAIDL [RTN1]
OUT: 3.41

IN: Look at this sequence and give its reported protein stability index. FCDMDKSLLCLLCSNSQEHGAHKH [TRIM43]
OUT: 3

IN: Look at this sequence and give its reported protein stability index. STSFMSSSSSSSSWLTRRAIRPEN [EMD]
OUT: 3.38

IN: Look at this sequence and give its reported protein stability index. IAIPEWFLSENATVAAETRAVIAW [CPXM2]
OUT: 2.08

###

- EXPERIMENT_SUMMARY: protein stability index of a GFP-peptide fusion (GPS, HEK-293T) (PSI 1-6); higher = more stable
- CONDITION_SET: treatment: DMSO; c terminus: a fixed tail appended
Tag: Criterion met if measured protein stability index is not below 4, Criterion not met if it is.

Reference set (10 entries):
KLGLHDNHWVPACHSFNRAIHKKA [FBXO34] ... Criterion not met
KSENARLVVQIDNAKLAADDFRTK [KRT33B] ... Criterion met
TLRQKTVDWRRVSRLQEDPEGTEN [SLA] ... Criterion met
HLVAGGGAGAVSRTCTAPLDRLKV [SLC25A25] ... Criterion not met
ARRKLKGAILTTMLATRNFSGGKS [CAMK2A] ... Criterion not met
MEAQAQGLLETEPLQGTDEDAVAS [TPD52L1] ... Criterion met
STPAPAERPLPNPEGLDSDFLAVL [SLA] ... Criterion met
VRVNVLLSRYLIEPCGPGKSKLTY [DLC1] ... Criterion not met
GAYKSSTICYCPEKGTWTELEGDV [KLHL14] ... Criterion met
VKRLLRSDAEAVSTRWEVIAEDGT [TAF7L] ... Criterion not met

Field: next sequence
IN: Determine whether this sequence has protein stability index no lower than 4: VGVFLDFESGSVSFLNVTKSSLIW [TRIM43]
OUT: Criterion not met

###

- EXPERIMENT_SUMMARY: protein stability index of a GFP-peptide fusion (GPS, HEK-293T) (PSI 1-6); higher = more stable
- CONDITION_SET: treatment: DMSO; c terminus: a fixed tail appended
MEASUREMENT_LABEL: protein stability index
Answer with the value's number alone.

Sample answers from the record:
RDCGEEMQNGAGASRTSTIFLNGN [TNXB] ... 3.99
VVIFQREPESKNAPHSQGEYDVYS [PPP2R2C] ... 2.5
AKAEGFTASTKNCMVGYDMGATRC [CPXM2] ... 3.42
EEVLCDSCIGNKQKAVKSCLVCQA [TRIM29] ... 5.52

Alright, here's another sequence for you.
IN: Look at this sequence and give its reported protein stability index. DFQGRILSVDPEEEREEGPPRIPQ [RHOBTB1]
OUT: 5.29

###

- EXPERIMENT_SUMMARY: protein stability index of a GFP-peptide fusion (GPS, HEK-293T) (PSI 1-6); higher = more stable
- CONDITION_SET: treatment: MLN4924 1 uM, 8 h; c terminus: a fixed tail appended
MEASUREMENT_LABEL: protein stability index

IN: Look at this sequence and give its reported protein stability index. LPGLAGPSGEMVKSTTSLTSSSTS [MLH1]
OUT: 4.82

IN: Look at this sequence and give its reported protein stability index. ARTFGNEARFIRRSCTPNAEVRHE [KMT2E]
OUT: 3.22

IN: Look at this sequence and give its reported protein stability index. ELDELASKAPVLTYGQPKQAPPAD [EFHC1]
OUT: 5.59

IN: Look at this sequence and give its reported protein stability index. DKLGELSDKIGSTIDDTISKFRRK [CLINT1]
OUT: 3.4

IN: Look at this sequence and give its reported protein stability index. VQQWLQKGTPASKLILGMPTYGRS [CHIT1]
OUT: 2.51

IN: Look at this sequence and give its reported protein stability index. DTAHDFRAKCRNMEHALREKAKAF [TRIM35]
OUT: 3.43

IN: Look at this sequence and give its reported protein stability index. EEHESGIEQFSESHAIHVEEQSDQ [IQUB]
OUT: 5.56

IN: Look at this sequence and give its reported protein stability index. LSRHDKAVQRFCLIGSLSKHESEY [NETO1]
OUT: 2.69

IN: Look at this sequence and give its reported protein stability index. PSSLMETLEQHLNTLEGKKPGNNE [SNAP91]
OUT: 5.05

IN: Look at this sequence and give its reported protein stability index. SFAQATQLGDLHTCLMMDMKACQE [INTS3]
OUT: 3.3

IN: Look at this sequence and give its reported protein stability index. VFITYSMDTAMEVVKFVNFLLVNG [TRAF3IP2]
OUT: 2.06

IN: Look at this sequence and give its reported protein stability index. AHVGMELQLKQELAMLNAVTEDLR [SCARA5]
OUT: 3.16

IN: Look at this sequence and give its reported protein stability index. HLVAGGGAGAVSRTCTAPLDRLKV [SLC25A25]
OUT: 3.25

IN: Look at this sequence and give its reported protein stability index. EMREIRRKLRELQLRNCLRILMGE [BEX3]
OUT: 2.28

IN: Look at this sequence and give its reported protein stability index. AGNKAALLDQIREGAQLKKVEQNS [WASL]
OUT: 5.24

IN: Look at this sequence and give its reported protein stability index. KEEEEKDHNEAMKPEEPPQNLLRE [PCMTD1]
OUT: 5.88

IN: Look at this sequence and give its reported protein stability index. SEEQLQEPITGWRKTVCHNGVLGL [LPCAT4]
OUT: 3.64

IN: Look at this sequence and give its reported protein stability index. FKAWLHNSGTDQEQIHLLLSSQCF [M1AP]
OUT: 2.43

IN: Look at this sequence and give its reported protein stability index. ATPIVPVVPPTPPVVKKKGVKRKA [BRD3]
OUT: 5.27

IN: Look at this sequence and give its reported protein stability index. SLQLVFGIELMEVDPIGHLYIFAT [MAGEA3]
OUT: 2.74

IN: Look at this sequence and give its reported protein stability index. SLRTLKPEGNILRDRFKSFQRRNM [NOP53]
OUT: 3.21

IN: Look at this sequence and give its reported protein stability index. SEEAPSTSGMGFHAPKIGSNGVEM [SDE2]
OUT: 4.89

IN: Look at this sequence and give its reported protein stability index. TYKHINEVYYAKKKRRAQQAPPQD [DYRK1B]
OUT: 3.66

IN: Look at this sequence and give its reported protein stability index. EARGIRAPPLPDSPQPLASSPGPW [FCHO1]
OUT: 4.31

###

- EXPERIMENT_SUMMARY: protein stability index of a GFP-peptide fusion (GPS, HEK-293T) (PSI 1-6); higher = more stable
- CONDITION_SET: treatment: DMSO; c terminus: a fixed tail appended
// classify(record): look up protein stability index in ranges LOW: < 3; MID: ≥ 3 and < 4; HIGH: ≥ 4

Reference set (6 entries):
AGSVFGGGFGGGVGGGFGGGFGGG [KRT15] ... LOW
LTLCRSDLEAQMESLKEELLSLKQ [KRT33B] ... LOW
PVKASRSHQELHRELLMNHRRGLG [FAM107A] ... MID
AFLGDAEIIELLILSGARVNAKDN [ANKRD44] ... LOW
TYKHINEVYYAKKKRRAQQAPPQD [DYRK1B] ... MID
FHITNDEPIPFWTFLSRILTGLNY [NSDHL] ... LOW

IN: Band for the recorded protein stability index of SKQLTLEQLRREKIDLENTLEQEQ [CCDC6] ?
OUT: HIGH

IN: Band for the recorded protein stability index of EDKCPGNYTNPLKVQTVIILGKVI [TMEM192] ?
OUT: LOW

IN: Band for the recorded protein stability index of PEAVDEDRSTEPDRLQVFHKRAIM [ATE1] ?
OUT: HIGH

IN: Band for the recorded protein stability index of QFLNDQISVQNYKQVCKIAALHGL [KLHL14] ?
OUT: LOW

IN: Band for the recorded protein stability index of RKWHKASNYIFVAIFWIVFLLLIV [P2RY14] ?
OUT: MID

IN: Band for the recorded protein stability index of HDKIRPISSIGQVQSYMEHYCNSS [SPACA9] ?
OUT: MID

IN: Band for the recorded protein stability index of RISNPSDDNSCEDLEEERREEEEK [PCMTD2] ?
OUT: HIGH
